half-life at 50 nM listing for selected molecules.
Procedure Summary: Stability in 20% w/v rat liver homogenate
Assay type: in vitro ADME
Setup Conditions: rat, 20% w/v rat liver homogenate, rat liver homogenate, 37°C; read-out: Rat Liver Compd t 1/2
Experimental: The chemical and metabolic stability of PEA and all prodrugs were studied by incubating each compound (5 μL of a […] solution in DMSO, or DMSO as control) with 495 μL of 10 mM phosphate buffered saline pH 7.4 for chemical stability, 80% v/v rat plasma or 20% w/v rat liver homogenate prepared accordingly to previously described procedures for metabolic stability, reaching a final concentration of 50 nm for the test compound. […]
API: value field is a number in min; no unit string.

> print(dat)
                                   molecule  reading
1  CCCCCCCCCCCCCCCC(=O)NCCOC(=O)NCC(=O)O [compound 7]       23
2  CCCCCCCCCCCCCCCC(=O)NCCOC(=O)C[C@H](N)C(=O)O.Cl [compound 29]       21
3  CCCCCCCCCCCCCCCC(=O)NCCOC(=O)OCOC(=O)C1CCCCC1 [compound 5]      1.2

Moving on to another molecule below.
Query block: In one line, give reported half-life at 50 nM of the entry CCCCCCCCCCCCCCCC(=O)NCCOC(=O)[C@@H](N)CC(N)=O.Cl [compound 23] .
Result block: 24

---

Procedure Summary: Stability and PEA release in 80% v/v rat plasma
Format: in vitro ADME
Setup Conditions: rat, 80% v/v rat plasma, pH 7.4, 80% v/v rat plasma, 37°C, 50 nm compound; read-out: Rat Plasma Compd t 1/2
Quantity Measured: half-life at 50 nM

Guide cases for half-life at 50 nM, answers given:
> print(dat)
                                   compound   quantity.measured  reading
1  CCCCCCCCCCCCCCCC(=O)NCCOC(=O)[C@H](C)N.Cl  half-life at 50 nM   ~1 min
2  CCCCCCCCCCCCCCCC(=O)NCCOC(=O)[C@@H](N)CC(N)=O.Cl  half-life at 50 nM   ~9 min

Now consider a different compound.
Query block: State its half-life at 50 nM for this compound: CCCCCCCCCCCCCCCC(=O)NCCOC(=O)[C@@H](N)Cc1c[nH]c2ccccc12.Cl
Result block: ~5 min

---

Procedure Summary: Stability in 20% w/v rat liver homogenate
Type: in vitro ADME
Setup Conditions: rat, 20% w/v rat liver homogenate, rat liver homogenate, 37°C; read-out: Rat Liver Compd t 1/2
Each entry below lists one item and its recorded half-life at 50 nM value.

Worked set:
> print(dat)
                                   compound   quantity.measured  reading
1  CCCCCCCCCCCCCCCC(=O)NCCO [compound 1, Palmitoylethanolamide, reference compound]  half-life at 50 nM  ~25 min
2  CCCCCCCCCCCCCCCC(=O)NCCOC(=O)OCOC(C)=O [compound 3]  half-life at 50 nM  < 1 min

Query block: Entry CCCCCCCCCCCCCCCC(=O)NCCOC(=O)OCOC(=O)C(C)C [compound 4] needs its half-life at 50 nM filled in; supply it.
Result block: < 1 min

Query block: Identify measured half-life at 50 nM associated with CCCCCCCCCCCCCCCC(=O)NCCOC(=O)[C@@H](N)Cc1c[nH]c2ccccc12.Cl [compound 22]
Result block: ~36 min

Query block: Read the entry CCCCCCCCCCCCCCCC(=O)NCCOC(=O)[C@@H](N)CCC(N)=O.Cl [compound 24] and write its reported half-life at 50 nM.
Result block: ~80 min

Query block: In one line, give reported half-life at 50 nM of the entry CCCCCCCCCCCCCCCC(=O)NCCOC(=O)[C@H](C)N.Cl [compound 19] .
Result block: ~1 min
